These data points were gathered from patent US20190169134A1.

Test system: HCC827P
Procedure Summary: Cell growth inhibition by SRB method
Assay type: cell-based, human
Measurement Conditions: Homo sapiens; 72 hrs exposure, SRB
Consider the following compounds; for each one, report its IC50.
Answers are plain numbers, in nM.

Value sought for every listed compound: IC50.
1. C#Cc1cccc(Nc2ncnc3cc(OCCOC)c(NC(=O)c4ccc(Cl)c([N+](=O)[O-])c4)cc23)c1
2. C#Cc1cccc(Nc2ncnc3cc(OCCOC)c(NC(=O)c4ccc(F)c([N+](=O)[O-])c4)cc23)c1
3. C#Cc1cccc(Nc2ncnc3cc(OCCOC)c(NC(=O)c4ccc(Br)c([N+](=O)[O-])c4)cc23)c1
4. C#Cc1cccc(Nc2ncnc3cc(OCCOC)c(NC(=O)c4ccc(I)c([N+](=O)[O-])c4)cc23)c1

[150, 150, 200, 200]
